- Test system: HT-29
- procedure summary: NCI tumour cell line growth inhibition, 48 h
The source made the active and inactive calls. Cut-off read from the data, not from the text of the source: active = GI50 up to about 1.1 µM and inactive = higher.
Outcome codes: YES = active, NO = inactive

- molecule: "CC(=O)OCC1OC(OC2CC3C(C)(C)C(OC(C)=O)CC[C@]3(C)C3CCC45CC4(CC[C@H]5C(C)CC(O)[C@@H](O)C(C)(C)O)[C@]23C)C(O)C(O)C1O (stereo partly drawn)"
  category label: "NO"
- molecule: "CN(C)C(=S)/N=c1\\ss/c(=N\\c2ccccc2)n1-c1ccccc1"
  category label: "YES"
- molecule: "CC1CNC(c2ccc(CN3CCC(C4CCN(Cc5ccc(C6=NC(C)CN6)cc5)CC4)CC3)cc2)=N1 (stereo not drawn)"
  category label: "NO"

====

- Test system: RXF 393
- procedure summary: NCI tumour cell line growth inhibition, 48 h
The source made the active and inactive calls. Cut-off read from the data, not from the text of the source: active = GI50 up to about 1.1 µM and inactive = higher.
Entries and their GI50

- compound: "Cc1c(C(=O)/C=C/c2ccc(Cl)cc2)[n+]([O-])c2ccccc2[n+]1[O-]"
  GI50: "4.18 µM (inactive)"
- compound: "CCOC(=O)C(=O)Nc1c(C)cccc1C"
  GI50: "> 100 µM (inactive)"
- compound: "Nc1ccc(C(=O)N/C(=C\\c2ccc3c(c2)OCO3)c2nc3ccccc3s2)cc1"
  GI50: "14.8 µM (inactive)"
- compound: "Cc1ccc(/N=C2/S/C(=C3/CCC=C3N3CCOCC3)N(c3ccc(Cl)cc3)/C2=N/c2ccc(C)cc2)cc1"
  GI50: "> 100 µM (inactive)"
- compound: "CN1C(=O)c2c(c3c4ccccc4n(C4OC(CO)C(O)C(O)C4O)c3c3[nH]c4ccccc4c23)C1=O (stereo not drawn)"
  GI50: "3.55 µM (inactive)"
- compound: "CN(C)/C=C/c1c2c(nc3ccccc13)C(=O)c1ccccc1C2=O"
  GI50: "3.2 µM (inactive)"
- compound: "COCN1C(=O)[C@@H]2CCCN2C(=O)c2cc(N)ccc21"
  GI50: "> 100 µM (inactive)"
- compound: "NNC(=O)Nc1cccnc1"
  GI50: "> 100 µM (inactive)"
- compound: "C1=C(c2ccccc2)CN(c2ccccc2)OC1"
  GI50: "33.5 µM (inactive)"
- compound: "CCN(CC)C(=S)SS(=O)(=O)c1ccc(Cl)cc1"
  GI50: "17.6 µM (inactive)"
- compound: "CCc1n[nH]c(=O)n1N1C(=O)C2CC=CCC2C1=O (stereo not drawn)"
  GI50: "> 100 µM (inactive)"
- compound: "Cn1c2ccccc2c2c(=O)[nH]c(=O)[nH]c21"
  GI50: "> 100 µM (inactive)"
- compound: "O=C(CCCl)NN=C1NCCCCN1"
  GI50: "> 100 µM (inactive)"
- compound: "CCOC(=O)C1(CC(=O)O)CCCC1=O (stereo not drawn)"
  GI50: "> 100 µM (inactive)"
- compound: "CN1C(=O)c2ccccc2NC(=O)c2cnn(C)c21"
  GI50: "> 100 µM (inactive)"
- compound: "O=C1C(CN2CCCCC2)CCC1CN1CCCCC1 (stereo not drawn)"
  GI50: "14.8 µM (inactive)"
- compound: "N#CCCN(CCC#N)c1ccc(/C=N\\c2ccc(F)cc2)cc1"
  GI50: "> 57 µM (inactive)"
- compound: "COc1ccc(/C=C2\\c3cc(OC)c(OC)cc3CCN2C(=O)c2ccccc2)cc1OC"
  GI50: "35.2 µM (inactive)"
